- TARGET_UNDER_TEST: GCN2 (Homo sapiens)
- Sequence (Q9P2K8 whole entry): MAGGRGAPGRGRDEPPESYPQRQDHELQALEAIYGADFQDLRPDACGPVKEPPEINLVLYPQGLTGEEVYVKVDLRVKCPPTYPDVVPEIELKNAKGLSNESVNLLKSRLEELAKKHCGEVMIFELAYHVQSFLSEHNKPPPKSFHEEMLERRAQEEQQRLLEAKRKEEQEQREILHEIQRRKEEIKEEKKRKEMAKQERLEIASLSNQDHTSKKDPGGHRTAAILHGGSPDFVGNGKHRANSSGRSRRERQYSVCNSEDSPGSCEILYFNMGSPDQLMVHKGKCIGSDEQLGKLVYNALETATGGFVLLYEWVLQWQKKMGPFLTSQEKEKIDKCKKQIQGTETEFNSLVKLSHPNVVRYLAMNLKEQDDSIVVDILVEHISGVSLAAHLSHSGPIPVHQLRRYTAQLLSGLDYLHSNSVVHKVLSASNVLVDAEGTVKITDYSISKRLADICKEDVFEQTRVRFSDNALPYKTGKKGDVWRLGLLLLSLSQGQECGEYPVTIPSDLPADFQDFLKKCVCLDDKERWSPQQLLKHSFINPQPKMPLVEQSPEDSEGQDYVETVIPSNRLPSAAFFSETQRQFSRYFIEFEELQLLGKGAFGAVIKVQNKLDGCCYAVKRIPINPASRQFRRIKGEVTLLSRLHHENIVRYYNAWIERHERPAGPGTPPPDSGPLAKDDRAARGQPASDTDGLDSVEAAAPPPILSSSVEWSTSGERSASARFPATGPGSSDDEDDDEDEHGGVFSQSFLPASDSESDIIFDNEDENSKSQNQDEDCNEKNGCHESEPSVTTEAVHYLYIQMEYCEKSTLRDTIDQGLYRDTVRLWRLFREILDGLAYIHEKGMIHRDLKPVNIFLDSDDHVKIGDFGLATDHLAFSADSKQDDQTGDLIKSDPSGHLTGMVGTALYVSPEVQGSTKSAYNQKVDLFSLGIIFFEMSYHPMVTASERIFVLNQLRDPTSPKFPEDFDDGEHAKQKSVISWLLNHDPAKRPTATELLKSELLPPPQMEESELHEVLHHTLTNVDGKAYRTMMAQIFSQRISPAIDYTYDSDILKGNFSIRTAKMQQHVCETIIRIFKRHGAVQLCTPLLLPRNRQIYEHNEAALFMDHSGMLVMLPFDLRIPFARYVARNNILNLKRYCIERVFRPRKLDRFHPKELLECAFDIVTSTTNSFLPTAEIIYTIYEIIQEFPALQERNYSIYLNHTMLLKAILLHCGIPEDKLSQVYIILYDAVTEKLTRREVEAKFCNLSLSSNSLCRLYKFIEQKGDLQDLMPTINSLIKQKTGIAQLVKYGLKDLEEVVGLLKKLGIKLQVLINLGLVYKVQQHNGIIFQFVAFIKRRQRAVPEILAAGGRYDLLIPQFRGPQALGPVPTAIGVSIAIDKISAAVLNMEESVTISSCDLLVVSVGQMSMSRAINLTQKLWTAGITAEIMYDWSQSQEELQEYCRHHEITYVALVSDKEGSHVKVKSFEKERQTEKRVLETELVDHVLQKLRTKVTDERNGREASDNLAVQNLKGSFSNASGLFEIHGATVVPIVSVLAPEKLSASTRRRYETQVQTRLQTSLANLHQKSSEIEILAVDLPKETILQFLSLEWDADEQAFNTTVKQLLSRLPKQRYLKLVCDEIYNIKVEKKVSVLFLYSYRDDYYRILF
- TEST: GCN2 enzymatic endpoint assay: phosphorylation of GFP-eIF2α measured by TR-FRET (Lanthascreen)
- Assay type: biochemical
- RECORDED_CONDITIONS: tested as described in Example 77; compound and/or hydrochloride, dihydrochloride or trifluoroacetic acid salt; read-out: IC 50 Activity
Examples of compounds with documented IC50 follow.

Reference set (6 entries):
- COMPOUND: "CNC(=O)[C@]1(C)CC[C@@H](Nc2ncc3c(Br)nn(-c4ccc(-c5nnc(C)o5)c(CCO)c4)c3n2)C1"
  TARGET_UNDER_TEST: "GCN2 (Homo sapiens)"
  RECORDED_RESULT: "25 to 200 nM"
- COMPOUND: "Cc1nnc(-c2ccc(-n3nc(Br)c4cnc(N[C@@H]5CC[C@@H](NC(=O)[C@H]6CCCCN6)C5)nc43)cc2)s1"
  TARGET_UNDER_TEST: "GCN2 (Homo sapiens)"
  RECORDED_RESULT: "25 to 200 nM"
- COMPOUND: "CNC(=O)[C@]1(C)CC[C@@H](Nc2ncc3c(Br)nn(-c4cc(NC(=O)CCN)c5ncccc5c4)c3n2)C1"
  TARGET_UNDER_TEST: "GCN2 (Homo sapiens)"
  RECORDED_RESULT: "< 25 nM"
- COMPOUND: "CNC(=O)[C@]1(C)CCC(Nc2ncc3c(Br)nn(-c4ccc5c(=O)[nH]ccc5c4)c3n2)C1 (stereo partly shown)"
  TARGET_UNDER_TEST: "GCN2 (Homo sapiens)"
  RECORDED_RESULT: "25 to 200 nM"
- COMPOUND: "CNC(=O)[C@]1(C)CC[C@@H](Nc2ncc3c(Br)nn(-c4cc(F)c5nc(C)cc(O)c5c4)c3n2)C1"
  TARGET_UNDER_TEST: "GCN2 (Homo sapiens)"
  RECORDED_RESULT: "25 to 200 nM"
- COMPOUND: "Cc1nnc(-c2ccc(-n3nc(Br)c4cnc(N[C@@H]5CC[C@@H](NC(=O)C6CNC6)C5)nc43)cc2)s1"
  TARGET_UNDER_TEST: "GCN2 (Homo sapiens)"
  RECORDED_RESULT: "25 to 200 nM"

response.value for CNC(=O)[C@]1(COC)CC[C@@H](Nc2ncc3c(Br)nn(-c4cc(F)c5ncccc5c4)c3n2)C1 (field: IC50) = < 25 nM

response.value for CNC(=O)[C@]1(C)CC[C@@H](Nc2ncc3c(Br)nn(-c4ccc(-c5nnc(C)s5)c(CCC(=O)O)c4)c3n2)C1 (field: IC50) = 25 to 200 nM

response.value for CNC(=O)[C@@]1(C)CC[C@@H](Nc2ncc3c(Br)nn(-c4cc(N5CCNCC5)c5ncccc5c4)c3n2)C1 (field: IC50) = 25 to 200 nM

response.value for CN[C@]1(C)CC[C@@H](Nc2ncc3c(Br)nn(-c4ccc(-c5nnc(C)s5)cc4)c3n2)C1 (field: IC50) = 25 to 200 nM

response.value for CNC(=O)[C@@]1(C)CC[C@@H](Nc2ncc3c(Br)nn(-c4ccc(OCCO)cc4)c3n2)C1 (field: IC50) = 25 to 200 nM

response.value for CC(C)(O)CNC(=O)[C@@H]1CC[C@@H](Nc2ncc3c(Br)nn(-c4cc(F)c5ncccc5c4)c3n2)C1 (field: IC50) = 25 to 200 nM

response.value for CNC(=O)[C@]1(C)CC[C@@H](Nc2ncc3c(Br)nn(-c4ccc5c(c4)OCC(=O)N5)c3n2)C1 (field: IC50) = 25 to 200 nM

response.value for CNC(=O)[C@]1(C)CC[C@@H](Nc2ncc3c(Br)nn(-c4ccc5c(c4)CNC(=O)C5)c3n2)C1 (field: IC50) = 25 to 200 nM

response.value for C[C@]1(NC(=O)[C@@H]2CC[C@@H](Nc3ncc4c(Br)nn(-c5ccc6ncccc6c5)c4n3)C2)C[C@H](O)C1 (field: IC50) = 25 to 200 nM

response.value for CNC(=O)[C@]1(C)CC[C@@H](Nc2ncc3c(Br)nn(-c4ccc5c(c4)OCC(=O)N5C(C)C)c3n2)C1 (field: IC50) = 25 to 200 nM

response.value for COCCNC(=O)[C@@H]1CC[C@@H](Nc2ncc3c(Br)nn(-c4ccc5cn[nH]c5c4)c3n2)C1 (field: IC50) = 500 to 1000 nM

response.value for CNC(=O)[C@]1(C)CC[C@@H](Nc2ncc3c(Br)nn(-c4ccc5c(c4)CN(S(=O)(=O)CC(F)F)C5)c3n2)C1 (field: IC50) = 25 to 200 nM

response.value for CN1CCN(C(=O)[C@@H]2CC[C@@H](Nc3ncc4c(Br)nn(-c5cc(C#N)c6ncccc6c5)c4n3)C2)CC1=O (field: IC50) = 25 to 200 nM

response.value for CNC(=O)[C@]1(C)CC[C@@H](Nc2ncc3c(Br)nn(-c4ccc5c(c4)CN(C(=O)C4CN(C(=O)C(F)(F)F)C4)CC5)c3n2)C1 (field: IC50) = 25 to 200 nM

response.value for CNC(=O)[C@]1(C)CC[C@@H](Nc2ncc3c(Br)nn(-c4ccc5c(c4)CN(C(=O)CO)CC5)c3n2)C1 (field: IC50) = 25 to 200 nM

response.value for CNC(=O)[C@]1(C)CC[C@@H](Nc2ncc3c(Br)nn(-c4cc(Cl)cc(C(=O)N5CCNCC5)c4)c3n2)C1 (field: IC50) = 25 to 200 nM

response.value for CNC(=O)[C@@H]1CC[C@@H](Nc2ncc3c(Br)nn(-c4cc(C#N)c5ncccc5c4)c3n2)C1 (field: IC50) = < 25 nM

All figures here come from patent US11046699B2.
